meta.source: PubChem BioAssay

Assay: small-molecule microarray binders of probe aDKK1, primary screen, biochemical, biotinylated probe, 635/667 nm fluorescence (AID 1099);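 also: score merges 667nm spot fluorescence with signal to noise across triplicate slides; reference of the scale not given here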
Settings: higher = more signal
Decide by composite z-score: equal to or exceeding -0.2 means Criterion met, less means Criterion not met.

| compound | classLabel |
| --- | --- |
| Cc1ccc([C@@H]2C[C@@H](Sc3ccccc3)[C@H](C(=O)O)CN2S(=O)(=O)c2ccc(C)cc2)cc1 | Criterion met |
| C=CCOC(=O)[C@H]1[C@@H]2C(=O)O[C@@H](c3ccccc3)[C@@H](c3ccccc3)N2[C@@H](c2ccc(OCCOC(=O)[C@H]3C[C@H]4C(=O)N[C@@H](CCCCN(C)C)C(=O)N4[C@H]3c3ccc(O)cc3)cc2)[C@]12C(=O)Nc1ccc(I)cc12 | Criterion met |
| CC(C)C(CO)N1C(=O)[C@@H]2C3C(=O)OCCC/C=C\[C@H]3OC23C=CCN(CCN2CCOCC2)C(=O)[C@@H]13 (stereo partly drawn) | Criterion not met |
| COCCOC(=O)N1C(=O)[C@@]2(c3cc(C#CC4(O)CCCCCC4)ccc31)[C@H](c1ccc(OCCO)cc1)N1[C@H](c3ccccc3)[C@H](c3ccccc3)OC(=O)[C@H]1[C@@H]2C(=O)N1CCN(c2ncccn2)CC1 | Criterion met |
| CC(C)OC(=O)C=C1C[C@@H](c2ccccn2)O[C@@H](c2ccccn2)O1 | Criterion not met |
| C=CCN1C(=O)[C@]2(O[C@H](CCn3cc([C@H](O)c4ccccc4)nn3)[C@@H]([Si](C)(C)c3ccc(OC)cc3)[C@@H]2C)c2cc(N3CCC3=O)ccc21 | Criterion not met |
| NC(=O)NCC#Cc1ccc2c(c1)[C@]1(C(=O)N2)[C@H](c2ccccc2OCCO)N2[C@H](c3ccccc3)[C@H](c3ccccc3)OC(=O)[C@H]2[C@@H]1C(=O)Nc1nc2ccccc2s1 | Criterion met |
| COc1ccc([Si](C)(C)[C@@H]2[C@@H](CC(=O)N3CCC[C@H]3CO)O[C@]3(C(=O)N(c4ccccc4)c4ccccc43)[C@H]2C)cc1 | Criterion met |
| COc1cccc(-c2cccc(=O)o2)c1 | Criterion met |
| C=CCC(OC(C)=O)[C@@H]1[C@@H](N(Cc2ccc(-c3cccc(C(F)(F)F)c3)o2)C(=O)c2ccc(C)cc2)c2cc(OCCCO)ccc2N1C(=O)Cc1ccc2ccccc2c1 (stereo partly drawn) | Criterion met |
| C=CCC(OC(C)=O)[C@@H]1[C@@H](N(Cc2ccc(-c3ccccc3)cc2)C(=O)c2cccc3ccccc23)c2cc(OCCCO)ccc2N1C(=O)c1ccc(-c2ccccc2)cc1 (stereo partly drawn) | Criterion met |
| C=CC[C@]1(C(=O)NCc2ccccc2)N=C(c2ccc(OCCCO)cc2)O[C@H]1c1ccccc1N=[N+]=[N-] | Criterion met |
| C=C(CCCC)/C(=C/C[C@H](OC(C)=O)c1ccccc1OCCO)c1cc(C(=O)OC)ccc1OC | Criterion not met |

* * *

Test system: Sam68 (KHDRBS1)
Assay: Sam68 small-molecule binders, primary screen, biochemical, small-molecule microarray, 635 nm fluorescence (AID 1125);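 also: score merges 667 nm channel intensity with signal to noise over triplicate slides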
Conditions: small-molecule microarray binding, higher = more signal
Decide by composite z-score: equal to or exceeding 0.5 means condition met, less means condition not met.

| compound | classLabel |
| --- | --- |
| COc1cc(Br)cc(C(O)C2C=CC3C(=O)N(C)C(=O)C3N2N2CCCCC2)c1OC (stereo not drawn) | condition not met |
| CCOC(=O)C[C@H]1[C@H](OC(=O)c2ccc(C(=O)c3ccccc3)cc2)[C@@H](NC(=O)c2ccc3ccccc3c2)c2cc(OCCCO)ccc2N1C(=O)Cc1ccc(OC)cc1 | condition not met |
| CC(C)=CCN[C@H](CO)c1ccccc1 | condition not met |
| CC(C)C(O)C1C=CC2C(=O)NC(=O)C2N1Nc1ccc(Cl)cc1Cl (stereo not drawn) | condition met |
| CC(C)C(=C=CC[C@@H](O)c1ccc(OCCO)cc1)C[C@@H](O)c1ccccn1 | condition met |
| C=C(CCCC)/C(=C/C[C@@H](OC(=O)c1ccncc1)c1ccc(OCCO)cc1)c1cc(C(=O)OC)ccc1OC | condition met |
| [N-]=[N+]=Nc1ccccc1[C@@H]1OC(c2ccc(OCCCO)cc2)=N[C@]1(Cc1ccccc1)C(=O)N1CCOCC1 | condition met |
| COc1ccccc1CN1C(=O)c2ccccc2[C@@]2(Cc3ccccc3N(CC(C)C)C2=O)[C@@H]1c1ccc(CO)cc1 | condition not met |

* * *

Collected composite z-score values appear next to each entry.
Test system: XIP peptide (Xip251-270)
Assay: small-molecule binders of XIP peptide, primary screen, biochemical, small-molecule microarray, fluorescence 635/667 nm, 0.5 µg/mL protein (AID 1183)
Details: small-molecule microarray binding, fluorescence 635 nm; higher = more signal
parameterMeasured: composite z-score

| compound | tgt | result |
| --- | --- | --- |
| CN(C)CCCC[C@@H]1NC(=O)[C@H]2C[C@@H](C(=O)NCCCCCCN)[C@@H](c3ccc(O)cc3)N2C1=O | XIP peptide (Xip251-270) | 0.785 |
| COC(=O)C(CC#Cc1ccc2c(c1)[C@]1(C(=O)N2)[C@H](C(=O)Nc2nc3ccccc3s2)[C@H]2C(=O)O[C@H](c3ccccc3)[C@H](c3ccccc3)N2[C@@H]1c1ccc(O)cc1)C(=O)OC | XIP peptide (Xip251-270) | 0.794 |
| O=C1C2C=CC(C(O)c3cc(C(F)(F)F)cc(C(F)(F)F)c3)N(n3cnnc3)C2C(=O)N1Cc1ccccc1 (stereo not drawn) | XIP peptide (Xip251-270) | 0.662 |

* * *

Assay: PSAC antagonists in infected red cells, primary screen, cell-based, P. falciparum Indochina, OD700, 1 h (AID 1154)
Conditions: P. falciparum Indochina infected RBC osmotic lysis, called active from +8 up or from −8 down
Activity calls are given as the source filed them.
Labels: active, inactive

| compound | classLabel |
| --- | --- |
| C=CC[C@]1(C(=O)NCc2ccccc2)N=C(c2ccc(OCCCO)cc2)O[C@H]1c1ccccc1N=[N+]=[N-] | active |
| N#Cc1ccc(NN2C(C(O)C(c3ccccc3)c3ccccc3)C=CC3C(=O)N(c4ccccc4)C(=O)C32)cc1 (centres undefined) | inactive |
| COC(=O)[C@@]1(Cc2ccccc2)N=C(c2ccc(OCCCO)cc2)O[C@H]1c1ccccc1 | active |
| COc1ccc([Si](C)(C)[C@@H]2[C@@H](CC(=O)N3CCC[C@H]3CO)O[C@]3(C(=O)N(c4ccccc4)c4ccccc43)[C@H]2C)cc1 | inactive |

* * *

Target: Carbonic anhydrase 2 (Homo sapiens) (UniProt P00918)
Experiment: CAII small-molecule binders, profiling panel, biochemical, small-molecule microarray, Alexa647-labelled CAII (AID 1122)
Settings: CAII-A647 binding fluorescence, higher = more signal
Collected composite z-score values appear next to each entry.

| molecule | tgt | composite z-score |
| --- | --- | --- |
| COC(=O)[C@@]1(Cc2ccc(OC)cc2)[C@H]2c3cc(C(=O)N4CCCC4)n(Cc4ccc(C)c(F)c4F)c3C[C@H]2CN1C(=O)c1ccccc1 | Carbonic anhydrase 2 (Homo sapiens) (UniProt P00918) | 0.744 |
| COc1ccc(/C=C/C=O)cc1 | Carbonic anhydrase 2 (Homo sapiens) (UniProt P00918) | -0.206 |
| O=C(c1ccccc1)N1Cc2ccccc2C[C@@]2(COC(c3ccc(OCCCO)cc3)=N2)C1=O | Carbonic anhydrase 2 (Homo sapiens) (UniProt P00918) | 0.288 |
| CC(C)C(O)C1C=CC2C(=O)N(c3ccccc3)C(=O)C2N1Nc1ccc([N+](=O)[O-])cc1 (stereo not drawn) | Carbonic anhydrase 2 (Homo sapiens) (UniProt P00918) | 0.719 |
| C=C(CCCC)/C(=C/C[C@@H](OC(C)=O)c1ccc(OCCO)cc1)c1cnc2ccccc2c1 | Carbonic anhydrase 2 (Homo sapiens) (UniProt P00918) | 0.718 |
| CC1CC/C=C\[C@H]2OC34C=CCN(C(C)(C)C)C(=O)[C@H]3N(C(C)CO)C(=O)[C@@H]4C2C(=O)O1 (stereo partly drawn) | Carbonic anhydrase 2 (Homo sapiens) (UniProt P00918) | 0.4 |
| CC(C)N1C(=O)c2ccccc2[C@](C)(C(=O)NCCN2CCOCC2)[C@@H]1c1ccc(CO)cc1 | Carbonic anhydrase 2 (Homo sapiens) (UniProt P00918) | 0.766 |
| NC(=O)NCC#Cc1ccc2c(c1)[C@]1(C(=O)N2)[C@H](C(=O)Nc2nc3ccccc3s2)[C@H]2C(=O)O[C@H](c3ccccc3)[C@H](c3ccccc3)N2[C@@H]1c1ccccc1OCCO | Carbonic anhydrase 2 (Homo sapiens) (UniProt P00918) | 0.39 |

* * *

System: XIP peptide (Xip251-270) binding
Test: small-molecule binders of XIP peptide, primary screen, biochemical, small-molecule microarray, fluorescence 635/667 nm, 0.1 µg/mL protein (AID 1182)
Details: fluorescent protein binding, 635 nm, higher = more signal, called active from +8 up or from −8 down
parameterMeasured: composite z-score

| compound | tgt | parameterMeasured | numericValue |
| --- | --- | --- | --- |
| CCCCCN1CC=CC23O[C@@H]4/C=C\CCC(C)OC(=O)C4[C@H]2C(=O)N(C(C)CO)[C@@H]3C1=O (stereo partly specified) | XIP peptide (Xip251-270) binding | composite z-score | 0.176 |
| COCCOC(=O)N1C(=O)[C@@]2(c3cc(C#Cc4ccc(OC)cc4)ccc31)[C@H](c1ccccc1OCCO)N1[C@H](c3ccccc3)[C@H](c3ccccc3)OC(=O)[C@H]1[C@@H]2C(=O)NC[C@H](O)c1ccccc1 | XIP peptide (Xip251-270) binding | composite z-score | 0.159 |
| O=C(c1ccccc1)N1C(=O)[C@@]2(Cc3ccccc31)N=C(c1ccc(OCCCO)cc1)O[C@H]2c1ccccc1 | XIP peptide (Xip251-270) binding | composite z-score | 1.68 |
| C=C(COC)/C(=C/C[C@@H](OC(=O)c1ccncc1)c1ccc(CO)o1)c1cc(C(=O)OC)ccc1OC | XIP peptide (Xip251-270) binding | composite z-score | 0.215 |
| C=CCOC(=O)[C@H]1[C@@H]2C(=O)O[C@@H](c3ccccc3)[C@@H](c3ccccc3)N2[C@@H](c2ccc(OCCOC(=O)[C@H]3C[C@H]4C(=O)N[C@@H](CCCCNC(C)=O)C(=O)N4[C@H]3c3cccc(OCCO)c3)cc2)[C@]12C(=O)Nc1ccccc12 | XIP peptide (Xip251-270) binding | composite z-score | 0.899 |
| COc1ccc([C@H]2OC[C@@H]3C[C@@H](Cc4ccccc4)C(=O)N32)cc1 | XIP peptide (Xip251-270) binding | composite z-score | 0.617 |
